Numbers sourced from patent US11214803B2.

# System: Yap1 mRNA
# ASSAY PROCEDURE: Antisense inhibition of human Yap1 in A-431 cells by cEt gapmers, single dose (Example 4, RTS4814)
# Format: cell-based
# CONDITION NOTES: Table 15; A-431 cells, 5,000 cells per well, free uptake, 2,000 nM, approximately 48 hours; RTS4814; normalized to RIBOGREEN; Yap1 mRNA relative to untreated control; * = targets amplicon region of primer probe set
Strand notation (5' to 3'): a small letter for the sugar, then the base; units joined by * are phosphorothioate-linked, units joined directly phosphodiester-linked; [ ] holds rarer units or linkages, { } end groups; capitals alone tell only the bases. k = constrained ethyl (cEt); [5mC] = 5-methylcytosine; d = 2'-deoxy (DNA)
YAP1 (% UTC) overview
PROPERTY MEASURED: YAP1 (% UTC)

>>> print(df.to_string())
                                  substance  reported_value
0  1075329 (kA*kG*kG*dG*dA*dA*dA*dA*d[5mC]*dT*dT*dT*dG*k[5mC]*kA*k[5mC]; antisense) [Compound 1075329]              26
1  1075969 (kG*kT*kA*dT*dT*dT*dA*dA*dG*d[5mC]*d[5mC]*dA*dA*kA*k[5mC]*k[5mC]; antisense) [Compound 1075969]              11
2  1075041 (antisense kG*kA*kT*dT*dA*dT*dA*dA*dA*dG*dA*dG*dG*k[5mC]*kT*k[5mC]) [Compound 1075041]               5
